- Protocol Description: Clearance at 1 mg/kg intravenous administration and 2 mg/kg peroral administration
- Assay type: ADME, organism-based
- Measurement Setup: cercopithecidae, in vivo
Measurement Name: clearance

>>> reported_value("CN1CCN[C@H](C(=O)N[C@H](Cc2ccc(F)cc2)C(=O)N2CCC(C(=O)NC(C)(C)C)(C3CCCCC3)CC2)C1")
"15.7 mL/min/kg"

====

- Target Of Assay: Melanocortin receptor 5 (Homo sapiens)
- Sequence (P33032 whole entry): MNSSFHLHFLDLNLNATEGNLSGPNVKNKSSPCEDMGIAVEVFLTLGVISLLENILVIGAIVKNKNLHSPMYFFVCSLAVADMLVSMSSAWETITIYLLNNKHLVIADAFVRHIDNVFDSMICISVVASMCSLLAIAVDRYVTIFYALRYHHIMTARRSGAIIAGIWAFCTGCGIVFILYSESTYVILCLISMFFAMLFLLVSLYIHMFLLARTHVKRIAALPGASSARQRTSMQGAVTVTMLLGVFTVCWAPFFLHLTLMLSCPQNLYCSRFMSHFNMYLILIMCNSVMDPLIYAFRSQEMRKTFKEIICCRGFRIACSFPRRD
- Protocol Description: Effective concentration towards human melanocortin-5 receptor mediated cAMP accumulation in CHO cells
- Assay type: functional, cell-based
Mark TRUE only when EC50 stays strictly below 800 nM. Values equal to the cut-off are FALSE.

>>> class_name("CCN1CCN[C@H](C(=O)N[C@H](Cc2ccc(F)cc2)C(=O)N2CCC(C(=O)NC(C)(C)C)(C3CCCCC3)CC2)C1")
"FALSE"
>>> class_name("CC(C)CN1CCN[C@H](C(=O)N[C@H](Cc2ccc(F)cc2)C(=O)N2CCC(C(=O)NC(C)(C)C)(C3CCCCC3)CC2)C1")
"TRUE"
>>> class_name("CC(C)(C)NC(=O)C1(C2CCCCC2)CCN(C(=O)[C@@H](Cc2ccc(F)cc2)NC(=O)[C@@H]2CNCCN2C(=O)OC(C)(C)C)CC1")
"FALSE"
>>> class_name("CN1CCNC[C@H]1C(=O)N[C@H](Cc1ccc(F)cc1)C(=O)N1CCC(C(=O)NC(C)(C)C)(C2CCCCC2)CC1")
"FALSE"
>>> class_name("CN1CCN[C@@H](C(=O)N[C@H](Cc2ccc(F)cc2)C(=O)N2CCC(C(=O)NC(C)(C)C)(C3CCCCC3)CC2)C1")
"FALSE"
>>> class_name("CC(C)(C)NC(=O)C1(C2CCCCC2)CCN(C(=O)[C@@H](Cc2ccc(F)cc2)NC(=O)[C@@H]2CN(CC(F)F)CCN2)CC1")
"TRUE"
>>> class_name("C[C@H](N)C(=O)N1CCN[C@H](C(=O)N[C@H](Cc2ccc(F)cc2)C(=O)N2CCC(C(=O)NC(C)(C)C)(C3CCCCC3)CC2)C1")
"FALSE"
>>> class_name("CN1CCN[C@H](C(=O)N[C@H](Cc2ccc(F)cc2)C(=O)N2CCC(C(=O)NC(C)(C)C)(C3CCCCC3)CC2)C1")
"FALSE"

====

pEC50 values, listed per item
- Target Of Assay: Melanocortin receptor 4 (Homo sapiens, UniProt P32245)
- Sequence (P32245 whole entry): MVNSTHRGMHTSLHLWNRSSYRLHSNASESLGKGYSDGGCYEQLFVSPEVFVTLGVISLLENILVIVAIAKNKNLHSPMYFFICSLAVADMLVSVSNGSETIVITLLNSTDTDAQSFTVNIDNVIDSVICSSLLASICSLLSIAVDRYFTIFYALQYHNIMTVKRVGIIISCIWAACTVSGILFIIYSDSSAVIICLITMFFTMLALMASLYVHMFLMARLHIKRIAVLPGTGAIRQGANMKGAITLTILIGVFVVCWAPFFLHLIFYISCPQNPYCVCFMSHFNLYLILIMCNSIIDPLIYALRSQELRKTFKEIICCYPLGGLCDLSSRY
- Protocol Description: Effective concentration towards human melanocortin-4 receptor mediated cAMP accumulation in CHO cells
pEC50: −log10 of the molar value.
Measurement Name: pEC50

>>> reported_value("CC(C)CN1CCN[C@H](C(=O)N[C@H](Cc2ccc(F)cc2)C(=O)N2CCC(C(=O)NC(C)(C)C)(C3CCCCC3)CC2)C1")
7.47
>>> reported_value("CN1CCNC[C@H]1C(=O)N[C@H](Cc1ccc(F)cc1)C(=O)N1CCC(C(=O)NC(C)(C)C)(C2CCCCC2)CC1")
7.54
>>> reported_value("CN1CCN[C@@H](C(=O)N[C@H](Cc2ccc(F)cc2)C(=O)N2CCC(C(=O)NC(C)(C)C)(C3CCCCC3)CC2)C1")
7.09
>>> reported_value("CC(C)(C)NC(=O)C1(C2CCCCC2)CCN(C(=O)[C@@H](Cc2ccc(F)cc2)NC(=O)[C@@H]2CNCCN2C(=O)OC(C)(C)C)CC1")
7.89
>>> reported_value("C[C@H](N)C(=O)N1CCN[C@H](C(=O)N[C@H](Cc2ccc(F)cc2)C(=O)N2CCC(C(=O)NC(C)(C)C)(C3CCCCC3)CC2)C1")
6.57
>>> reported_value("CCN1CCN[C@H](C(=O)N[C@H](Cc2ccc(F)cc2)C(=O)N2CCC(C(=O)NC(C)(C)C)(C3CCCCC3)CC2)C1")
7.28
>>> reported_value("CC(C)(C)NC(=O)C1(C2CCCCC2)CCN(C(=O)[C@@H](Cc2ccc(F)cc2)NC(=O)[C@@H]2CN(CC(F)F)CCN2)CC1")
7.28

====

- Protocol Description: Clearance at 1 mg/kg intravenous administration and 5 mg/kg peroral administration
- Type: ADME, organism-based
- Measurement Setup: rat, in vivo
Measurement Name: clearance (mL/min/kg)

>>> reported_value("CN1CCN[C@H](C(=O)N[C@H](Cc2ccc(F)cc2)C(=O)N2CCC(C(=O)NC(C)(C)C)(C3CCCCC3)CC2)C1")
48.7

====

- Protocol Description: Vdss at 0.5 mg/kg intravenous administration and 2 mg/kg peroral administration
- Type: ADME, organism-based, Canis lupus familiaris
- Measurement Setup: dog, in vivo, read-out: Vdss
Measurement Name: Vd (L/kg)

>>> reported_value("CN1CCN[C@H](C(=O)N[C@H](Cc2ccc(F)cc2)C(=O)N2CCC(C(=O)NC(C)(C)C)(C3CCCCC3)CC2)C1")
1.2

====

- Protocol Description: Vdss at 1 mg/kg intravenous administration and 5 mg/kg peroral administration
- Type: ADME, organism-based
- Measurement Setup: rat, in vivo, read-out: Vdss
Measurement Name: Vd (L/kg)

>>> reported_value("CN1CCN[C@H](C(=O)N[C@H](Cc2ccc(F)cc2)C(=O)N2CCC(C(=O)NC(C)(C)C)(C3CCCCC3)CC2)C1")
5.4

====

- Target Of Assay: UniProtKB Q01726
- Sequence (Q01726 whole entry): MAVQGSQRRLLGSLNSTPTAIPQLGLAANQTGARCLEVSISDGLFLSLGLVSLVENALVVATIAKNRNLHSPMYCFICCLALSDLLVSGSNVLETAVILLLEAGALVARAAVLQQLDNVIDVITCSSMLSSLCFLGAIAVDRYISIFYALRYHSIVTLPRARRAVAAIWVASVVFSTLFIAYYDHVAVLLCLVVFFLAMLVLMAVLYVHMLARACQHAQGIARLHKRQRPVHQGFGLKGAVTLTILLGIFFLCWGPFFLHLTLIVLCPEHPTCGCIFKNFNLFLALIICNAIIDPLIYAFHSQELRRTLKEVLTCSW
- Protocol Description: Effective concentration towards human melanocortin-1 receptor mediated cAMP accumulation in CHO cells
Measurement Name: EC50 (nM)

>>> reported_value("CN1CCN[C@H](C(=O)N[C@H](Cc2ccc(F)cc2)C(=O)N2CCC(C(=O)NC(C)(C)C)(C3CCCCC3)CC2)C1")
350

====

- Protocol Description: Half life at 1 mg/kg intravenous administration and 2 mg/kg peroral administration
- Format: ADME, organism-based
- Measurement Setup: cercopithecidae, in vivo
Measurement Name: half-life

>>> reported_value("CN1CCN[C@H](C(=O)N[C@H](Cc2ccc(F)cc2)C(=O)N2CCC(C(=O)NC(C)(C)C)(C3CCCCC3)CC2)C1")
"1.3 h"

====

- Target Of Assay: Melanocortin receptor 4 (Homo sapiens)
- Protocol Description: Concentration for 50% inhibition of human melanocortin-4 receptor expressed in CHO cells using [125I]NDP-alpha-MSH as radioligand
Reported IC50 values for the following compounds.
Measurement Name: IC50 (nM)

>>> reported_value("CN1CCNC[C@H]1C(=O)N[C@H](Cc1ccc(F)cc1)C(=O)N1CCC(C(=O)NC(C)(C)C)(C2CCCCC2)CC1")
87
>>> reported_value("CN1CCN[C@@H](C(=O)N[C@H](Cc2ccc(F)cc2)C(=O)N2CCC(C(=O)NC(C)(C)C)(C3CCCCC3)CC2)C1")
52
>>> reported_value("CC(C)(C)NC(=O)C1(C2CCCCC2)CCN(C(=O)[C@@H](Cc2ccc(F)cc2)NC(=O)[C@@H]2CN(CC(F)F)CCN2)CC1")
13
>>> reported_value("CC(C)(C)NC(=O)C1(C2CCCCC2)CCN(C(=O)[C@@H](Cc2ccc(F)cc2)NC(=O)[C@@H]2CNCCN2C(=O)OC(C)(C)C)CC1")
18

====

- Target Of Assay: UniProtKB P41968
- Sequence (P41968 whole entry): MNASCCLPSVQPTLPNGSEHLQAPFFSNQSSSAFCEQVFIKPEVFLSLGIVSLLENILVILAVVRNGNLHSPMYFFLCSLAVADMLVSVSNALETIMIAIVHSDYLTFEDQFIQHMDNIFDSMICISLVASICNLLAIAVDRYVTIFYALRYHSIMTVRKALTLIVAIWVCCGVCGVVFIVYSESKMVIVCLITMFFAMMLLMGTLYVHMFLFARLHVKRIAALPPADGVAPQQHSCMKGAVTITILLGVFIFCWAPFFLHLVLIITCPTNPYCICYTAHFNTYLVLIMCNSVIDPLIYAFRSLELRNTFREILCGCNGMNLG
- Protocol Description: Concentration of compound at 50% maximum cAMP accumulation at human melanocortin-3 receptor
- Assay type: functional
Measurement Name: cAMP accumulation (%)

>>> reported_value("CN1CCN[C@@H](C(=O)N[C@H](Cc2ccc(F)cc2)C(=O)N2CCC(C(=O)NC(C)(C)C)(C3CCCCC3)CC2)C1")
7
>>> reported_value("CC(C)(C)NC(=O)C1(C2CCCCC2)CCN(C(=O)[C@@H](Cc2ccc(F)cc2)NC(=O)[C@@H]2CNCCN2C(=O)OC(C)(C)C)CC1")
10
>>> reported_value("CN1CCN[C@H](C(=O)N[C@@H](Cc2ccc(F)cc2)C(=O)N2CCC(C(=O)NC(C)(C)C)(C3CCCCC3)CC2)C1")
1
>>> reported_value("C[C@H](N)C(=O)N1CCN[C@H](C(=O)N[C@H](Cc2ccc(F)cc2)C(=O)N2CCC(C(=O)NC(C)(C)C)(C3CCCCC3)CC2)C1")
12

====

- Protocol Description: Percent bioavailability at 1 mg/kg intravenous administration and 5 mg/kg peroral administration
- Type: ADME, organism-based
- Measurement Setup: rat, in vivo, po
Measurement Name: bioavailability (%)

>>> reported_value("CN1CCN[C@H](C(=O)N[C@H](Cc2ccc(F)cc2)C(=O)N2CCC(C(=O)NC(C)(C)C)(C3CCCCC3)CC2)C1")
9

====

- Target Of Assay: Melanocortin receptor 5 (Homo sapiens)
- Protocol Description: Concentration of compound at 50% maximum cAMP accumulation at human melanocortin-5 receptor
- Assay type: functional
Measurement Name: cAMP accumulation (%)

>>> reported_value("CN1CCN[C@H](C(=O)N[C@@H](Cc2ccc(F)cc2)C(=O)N2CCC(C(=O)NC(C)(C)C)(C3CCCCC3)CC2)C1")
3
>>> reported_value("CC(C)(C)NC(=O)C1(C2CCCCC2)CCN(C(=O)[C@@H](Cc2ccc(F)cc2)NC(=O)[C@@H]2CNCCN2C(=O)OC(C)(C)C)CC1")
43
>>> reported_value("CN1CCN[C@H](C(=O)N[C@H](Cc2ccc(F)cc2)C(=O)N2CCC(C(=O)NC(C)(C)C)(C3CCCCC3)CC2)C1")
32
>>> reported_value("CN1CCNC[C@H]1C(=O)N[C@H](Cc1ccc(F)cc1)C(=O)N1CCC(C(=O)NC(C)(C)C)(C2CCCCC2)CC1")
19
>>> reported_value("CN1CCN[C@@H](C(=O)N[C@H](Cc2ccc(F)cc2)C(=O)N2CCC(C(=O)NC(C)(C)C)(C3CCCCC3)CC2)C1")
39
>>> reported_value("CC(C)CN1CCN[C@H](C(=O)N[C@H](Cc2ccc(F)cc2)C(=O)N2CCC(C(=O)NC(C)(C)C)(C3CCCCC3)CC2)C1")
22
>>> reported_value("C[C@H](N)C(=O)N1CCN[C@H](C(=O)N[C@H](Cc2ccc(F)cc2)C(=O)N2CCC(C(=O)NC(C)(C)C)(C3CCCCC3)CC2)C1")
27
>>> reported_value("CC(C)(C)NC(=O)C1(C2CCCCC2)CCN(C(=O)[C@@H](Cc2ccc(F)cc2)NC(=O)[C@@H]2CN(CC(F)F)CCN2)CC1")
19
>>> reported_value("CCN1CCN[C@H](C(=O)N[C@H](Cc2ccc(F)cc2)C(=O)N2CCC(C(=O)NC(C)(C)C)(C3CCCCC3)CC2)C1")
20
